System: L1210 leukemia ip in BDF1 mice, survival T/C
ASSAY_OVERVIEW: NCI In Vivo Anticancer Drug Screen. Data for tumor model L1210 Leukemia (intraperitoneal) in B6D2F1 (BDF1) mice
CONDITION_LABEL: endpoint: mean survival time; dose: 75.0 mg/kg/injection; schedule: Q01DX001 (ip); vehicle: saline; higher = longer survival
Toxic doses and inconclusive results are not listed.
As shown below, each of these compounds has a reported T/C value.
OUTCOME_MEASURE: T/C

INSERT INTO measurements (compound, outcome_measure, reading) VALUES
  ('NC1=CCNN1', 'T/C', '106 % of control'),
  ('NC(=O)NC(=O)c1ccccn1', 'T/C', '106 % of control'),
  ('C=CS(=O)(=O)CCCCCCC', 'T/C', '96 % of control'),
  ('CC(=O)Nc1nc(Cl)c2ncn(C3OC(COC(=O)c4ccccc4)C(OC(=O)c4ccccc4)C3OC(=O)c3ccccc3)c2n1 (stereo unspecified)', 'T/C', '95 % of control'),
  ('CC(C)NCCOC(=O)c1ccc(N)cc1', 'T/C', '102 % of control'),
  ('O=C(O)/C=C/C1CCCCC1', 'T/C', '97 % of control'),
  ('Nc1nc2ncc(CNc3ccc(CC(=O)NC(CCC(=O)O)C(=O)O)cc3)nc2c(=O)[nH]1 (stereo unspecified)', 'T/C', '103 % of control'),
  ('COC(=O)C(=O)c1c(-c2ccc[n+](Cc3ccccc3)c2)[nH]c2ccccc12', 'T/C', '101 % of control'),
  ('CSc1cccc(Cl)c1', 'T/C', '100 % of control'),
  ('Cc1ccc(S(=O)(=O)Oc2ccc(-c3ccc(Br)cc3)cc2)cc1', 'T/C', '97 % of control'),
  ('CCCCCCCC(=O)Oc1ccc([N+](=O)[O-])cc1', 'T/C', '100 % of control');
